test: qHTS assay to test for compound auto fluorescence at 590 nm (red) in HEK293 cell free culture (AID 720683); conditions: cell-free medium autofluorescence, Ex540/Em590 red; series mostly up to 91.3 µM; note: % is set by controls: 0 for no effect and ±100 for the full control effect
Calls of active or inactive are those of the source. Calls come from the whole dose curve; as a rule, active = well fitted curve in the direction sought with a large enough effect in the repeat runs; inconclusive = weak or mixed curves; inactive = flat fitted curve, though single readings scatter.
reported-property: fluorescence, % of fluorescent control

- compound: "CO[C@@]1(NC(=O)C(C(=O)O)c2ccc(O)cc2)C(=O)N2C(C(=O)O)=C(CSc3nnnn3C)CO[C@@H]21 (some centres not stated)"
  assay-result: "0.0003% [at 18.6 µM] (inactive)"
- compound: "CNCCO"
  assay-result: "inactive"
- compound: "CC1=NS(=O)(=O)c2cc(Cl)ccc2N1"
  assay-result: "inactive"
- compound: "Cc1nc2ccc(CN(C)c3ccc(C(=O)N[C@@H](CCC(=O)O)C(=O)O)s3)cc2c(=O)[nH]1"
  assay-result: "inactive"
- compound: "CC1(C)OC[C@@H](COC(=O)CCc2ccc(OC[C@@H](O)CNCCNC(=O)N3CCOCC3)cc2)O1"
  assay-result: "inactive"

Q: Value lookup for fluorescence, % of fluorescent control; key = CC(=O)Nc1ccc(OCC(O)CNC(C)C)cc1 (configuration not stated)
Ans: inactive

Q: Value lookup for fluorescence, % of fluorescent control; key = `COc1cc(C)nc(-n2nc(C)cc2OC)n1`
Ans: 0.134% [at 18.6 µM] (inactive)

Q: Value lookup for fluorescence, % of fluorescent control; key = `N[C@H](C(=O)O)[C@@H](O)c1ccc(O)c(O)c1`
Ans: inactive

Q: Value lookup for fluorescence, % of fluorescent control; key = `O=C(O)CNC(=O)c1ccc(CO)o1`
Ans: inactive

Q: Value lookup for fluorescence, % of fluorescent control; key = CCCCCCCC1CCCC1=O (configuration not stated)
Ans: inactive

Q: Value lookup for fluorescence, % of fluorescent control; key = `C=C[Si](OC(C)=O)(OC(C)=O)OC(C)=O`
Ans: inactive

Q: Value lookup for fluorescence, % of fluorescent control; key = C=CCOCC(O)CO (configuration not stated)
Ans: inactive

----------
test: qHTS assay to identify small molecule agonists of the AP-1 signaling pathway (AID 1159526); settings: ME-180 (cervical carcinoma) AP-1-bla reporter, beta-lactamase FRET ratio, 5 h; series mostly up to 76.8 µM; note: % is set by controls: 0 for no effect and ±100 for the full control effect
Inconclusive results are not listed. Calls of active or inactive are those of the source. Calls come from the whole dose curve.
reported-property: activation

Worked set:
- molecule: "CCCCN1C=CN(C)C1"
  activation: "-8.87% [at 15.8 µM] (inactive)"
- molecule: "CCCCCCCCCCCCCCCCCCO"
  activation: "inactive"
- molecule: "C1CCC2=NCCCN2CC1"
  activation: "inactive"
- molecule: "CN1[C@@H]2CC[C@H]1CC(OC(=O)C(O)c1ccccc1)C2 (some centres not stated)"
  activation: "inactive"

Q: Value lookup for activation; key = C=C(C)C(=O)OCC(O)CO (configuration not stated)
Ans: inactive

Q: Value lookup for activation; key = `Nc1c2c(nc3c1CCC3)CCCC2`
Ans: inactive

Q: Value lookup for activation; key = `CC(C)C(=O)OC(=O)C(C)C`
Ans: inactive

Q: Value lookup for activation; key = `O=C(CO)[C@@H](O)[C@H](O)[C@@H](O)CO`
Ans: inactive

Q: Value lookup for activation; key = COc1ccccc1OCC1CNC(=O)O1 (configuration not stated)
Ans: inactive

Q: Value lookup for activation; key = `Cc1cc(C)c(N=Nc2c(O)c(S(=O)(=O)O)cc3cc(S(=O)(=O)O)ccc23)cc1C`
Ans: 6% [at 6.97 µM] (inactive)

Q: Value lookup for activation; key = `O=C(O)CCCC[P+](c1ccccc1)(c1ccccc1)c1ccccc1`
Ans: inactive

Q: Value lookup for activation; key = CN(C)[C@@H]1C(=O)C(C(=O)NCN2CCCC2)=C(O)[C@@]2(O)C(=O)C3=C(O)c4c(O)cccc4[C@@](C)(O)C3C[C@@H]12 (some centres not stated)
Ans: inactive
